- System: OVCAR-5
- METHOD_NOTES: NCI tumour cell line growth inhibition, 48 h
Activity calls are given as the source filed them. Cut-off read from the data, not from the text of the source: active = GI50 up to about 1.1 µM and inactive = higher. Non-standard residues stand in square brackets, D forms with d. Residues, ends and D or L forms follow the SMILES beside them. ξ: configuration not given here. *: point of attachment. ξF = NC(Cc1ccccc1)C(=O)O; Cbz = O=C(OCc1ccccc1)*
Pick one and only one: active, inactive

Solved entries:
CCOC(=O)CNC(=O)C(Cc1ccccc1)NC(=O)OCc1ccccc1 (centres undefined) (Cbz-[ξF]-Gly-OEt) : inactive
Oc1c(Br)cc(/C=C/c2cccc(/C=C/c3cc(Br)c(O)c(Br)c3)n2)cc1Br : inactive
CO[C@H]1[C@@H](O)[C@@H](O)O[C@@H](O[C@H]2CC[C@@]3(C)[C@H](CC[C@@H]4[C@@H]3[C@H](O)C[C@]3(C)[C@@H](C5=CC(=O)OC5)CC[C@]43O)C2)[C@@H]1O : active

Please look at the following compound next.
Query: recorded result category for `COc1ccc(CNc2nc(NCc3ccc(OC)cc3)nc(NC(C)C)n2)cc1` in this test
inactive
